TESTED_SYSTEM: Mu-type opioid receptor (Rattus norvegicus)
Sequence (P33535 whole entry): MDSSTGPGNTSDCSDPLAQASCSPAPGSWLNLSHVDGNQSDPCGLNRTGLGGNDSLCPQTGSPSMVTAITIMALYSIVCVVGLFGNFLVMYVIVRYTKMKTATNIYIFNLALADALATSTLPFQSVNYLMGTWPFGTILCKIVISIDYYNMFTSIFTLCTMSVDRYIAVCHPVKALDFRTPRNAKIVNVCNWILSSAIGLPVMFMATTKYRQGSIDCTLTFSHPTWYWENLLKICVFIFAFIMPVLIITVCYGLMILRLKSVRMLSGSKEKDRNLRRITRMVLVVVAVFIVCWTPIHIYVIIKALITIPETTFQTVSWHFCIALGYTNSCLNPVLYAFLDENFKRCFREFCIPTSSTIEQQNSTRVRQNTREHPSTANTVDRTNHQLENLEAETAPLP
PROCEDURE_DETAILS: Displacement of [3H]-DAMGO from Wistar rat mu opioid receptor incubated for 1 hr by liquid scintillation counting method

{"ENTRY_SMILES": "C=C(C(N)=O)[C@@H](NC(=O)[C@H](Cc1c[nH]c2ccccc12)NC(=O)[C@@H](CCCCNC(C)=O)NC(=O)[C@@H](N)Cc1ccc(O)cc1)c1ccco1", "Ki, nM": 9.21}
{"ENTRY_SMILES": "C=C(C(N)=O)[C@@H](NC(=O)[C@H](Cc1c[nH]c2ccccc12)NC(=O)[C@@H](CCCCNC(=N)N)NC(=O)[C@@H](N)Cc1ccc(O)cc1)c1ccco1", "Ki, nM": 405}
{"ENTRY_SMILES": "C=C(C(N)=O)[C@@H](NC(=O)[C@H](Cc1c[nH]c2ccccc12)NC(=O)[C@@H](CCCNC(N)=O)NC(=O)[C@@H](N)Cc1ccc(O)cc1)c1ccco1", "Ki, nM": 5.82}
{"ENTRY_SMILES": "C=C(C(N)=O)[C@@H](NC(=O)[C@H](Cc1c[nH]c2ccccc12)NC(=O)[C@@H](CCCN)NC(=O)[C@@H](N)Cc1ccc(O)cc1)c1ccco1", "Ki, nM": 437}
{"ENTRY_SMILES": "C=C(C(N)=O)[C@@H](NC(=O)[C@H](Cc1c[nH]c2ccccc12)NC(=O)[C@@H](CNC(C)=O)NC(=O)[C@@H](N)Cc1ccc(O)cc1)c1ccco1", "Ki, nM": 4.54}
{"ENTRY_SMILES": "C=C(C(N)=O)[C@@H](NC(=O)[C@H](Cc1c[nH]c2ccccc12)NC(=O)[C@@H](CCC)NC(=O)[C@@H](N)Cc1ccc(O)cc1)c1ccco1", "Ki, nM": 34.4}
{"ENTRY_SMILES": "C=C(C(N)=O)[C@@H](NC(=O)[C@H](Cc1c[nH]c2ccccc12)NC(=O)[C@@H](CN)NC(=O)[C@@H](N)Cc1ccc(O)cc1)c1ccco1", "Ki, nM": 5.47}
{"ENTRY_SMILES": "C=C(C(N)=O)[C@@H](NC(=O)[C@H](Cc1ccccc1)NC(=O)[C@@H](CN)NC(=O)[C@@H](N)Cc1ccc(O)cc1)c1ccco1", "Ki, nM": 53}
{"ENTRY_SMILES": "C=C(C(N)=O)[C@@H](NC(=O)[C@H](Cc1c[nH]c2ccccc12)NC(=O)[C@@H](CCN)NC(=O)[C@@H](N)Cc1ccc(O)cc1)c1ccco1", "Ki, nM": 32.4}
{"ENTRY_SMILES": "C=C(C(N)=O)[C@@H](NC(=O)[C@H](Cc1ccccc1)NC(=O)[C@@H](CNC(C)=O)NC(=O)[C@@H](N)Cc1ccc(O)cc1)c1ccco1", "Ki, nM": 22.4}
{"ENTRY_SMILES": "C=C(C(N)=O)[C@@H](NC(=O)[C@H](Cc1c[nH]c2ccccc12)NC(=O)[C@@H](CCCNC(=N)N)NC(=O)[C@@H](N)Cc1ccc(O)cc1)c1ccco1", "Ki, nM": 4.9}
{"ENTRY_SMILES": "C=C(C(N)=O)[C@@H](NC(=O)[C@H](Cc1ccccc1)NC(=O)[C@@H](CCCNC(N)=O)NC(=O)[C@@H](N)Cc1ccc(O)cc1)c1ccco1", "Ki, nM": 8.72}
{"ENTRY_SMILES": "C=C(C(N)=O)[C@@H](NC(=O)[C@H](Cc1ccccc1)NC(=O)[C@@H](CCCNC(=N)N)NC(=O)[C@@H](N)Cc1ccc(O)cc1)c1ccco1", "Ki, nM": 19.2}
{"ENTRY_SMILES": "C=C(C(N)=O)[C@@H](NC(=O)[C@H](Cc1c[nH]c2ccccc12)NC(=O)[C@@H](CCCCN)NC(=O)[C@@H](N)Cc1ccc(O)cc1)c1ccco1", "Ki, nM": 172}

Origin of values: ChEMBL document CHEMBL4627340
